This collection of values is drawn from the Human Domainome abundance scans (Beltran et al. 2025).

B1: Transcription factor SOX-11, residues 50 to 117; numbered along this chain, P35716 (parent)
chain: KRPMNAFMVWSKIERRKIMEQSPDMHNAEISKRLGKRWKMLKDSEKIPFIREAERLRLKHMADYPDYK

# Variants of: B1
# experiment-notes: abundance fitness (aPCA) (normalised: wild type 0, dead -1); higher = more abundant; growth selection in yeast, the domain comes from the species named
# condition-summary: Homo sapiens
// reported abundance fitness for each item listed
Number only, no unit.

M40V : -0.665
H26P : 0.205
H26W : -0.388
D43E : -0.127
S44Q : 0.585
S22G : -0.587
N27F : -0.128
M25Y : -0.793

Task item: Which measured abundance fitness value corresponds to W38I ?
Reply: -0.716

Task item: Which measured abundance fitness value corresponds to M25F ?
Reply: -0.571

Task item: Which measured abundance fitness value corresponds to E45H ?
Reply: -0.45

Task item: Which measured abundance fitness value corresponds to N27G ?
Reply: -0.096

Task item: Which measured abundance fitness value corresponds to D43V ?
Reply: -0.397
